protocol.summary: Binding affinity to 5'-ATmCGGAT-3' DNA (unknown origin) assessed as dissociation constant incubated for 180 secs by SPR analysis
pKd: −log10 of the molar value.
measured.attribute: pKd

(P) CC(=O)Nc1cc(C(=O)Nc2cn(C)c(C(=O)NCCC(=O)Nc3cc(C(=O)NCCCC(=O)Nc4cn(C)c(C(=O)Nc5cn(C)c(C(=O)NCCC(=O)Nc6cc(C(=O)NCCC(=O)NCCCN(C)C)n(C)c6)n5)n4)n(C)c3)n2)n(C)c1
(Q) CC(=O)Nc1cc(C(=O)Nc2cn(C)c(C(=O)NCCC(=O)Nc3cc(C(=O)NCCCC(=O)Nc4cn(C)c(C(=O)Nc5cn(C)c(C(=O)Nc6cc(C(=O)Nc7cc(C(=O)NCCC(=O)NCCCN(C)C)n(C)c7)n(C)c6)n5)n4)n(C)c3)n2)n(C)c1
Pick one: P or Q . Which has the bigger pKd number? Lab log: write the label of the selected item as the result.
P

###

protocol.summary: Binding affinity to 5'-ATmCGGAT-3' DNA (unknown origin) assessed as dissociation rate constant incubated for 180 secs by SPR analysis
measured.attribute: Dissociation rate constant (koff)

Dear colleague, I am looking for the recorded Dissociation rate constant (koff) of the following molecule: CC(=O)Nc1cc(C(=O)Nc2cn(C)c(C(=O)NCCC(=O)Nc3cc(C(=O)NCCCC(=O)Nc4cn(C)c(C(=O)Nc5cn(C)c(C(=O)NCCC(=O)Nc6cc(C(=O)NCCC(=O)NCCCN(C)C)n(C)c6)n5)n4)n(C)c3)n2)n(C)c1
3.2 ×10⁻³ /s

Fill in: Dissociation rate constant (koff) of CC(=O)Nc1cc(C(=O)Nc2cn(C)c(C(=O)Nc3cc(C(=O)Nc4cc(C(=O)NCCCC(=O)Nc5cn(C)c(C(=O)Nc6cn(C)c(C(=O)NCCC(=O)Nc7cc(C(=O)NCCC(=O)NCCCN(C)C)n(C)c7)n6)n5)n(C)c4)n(C)c3)n2)n(C)c1 is ___
1.6 ×10⁻¹ /s

Fill blank: measured Dissociation rate constant (koff) of the molecule CC(=O)Nc1cc(C(=O)NCCC(=O)Nc2cn(C)c(C(=O)Nc3cc(C(=O)NCCCC(=O)Nc4cc(C(=O)NCCC(=O)Nc5cn(C)c(C(=O)Nc6cn(C)c(C(=O)NCCC(=O)NCCCN(C)C)n6)n5)n(C)c4)n(C)c3)n2)n(C)c1 is ____.
6.6 ×10⁻² /s

###

protocol.summary: Binding affinity to 5'-ATmCGGAT-3' DNA (unknown origin) assessed as association constant incubated for 180 secs by SPR analysis
measured.attribute: Ka (×10⁶ /M/s)

Some compounds with recorded Ka:
molecule.smiles	Ka [×10⁶ /M/s]
CC(=O)Nc1cc(C(=O)NCCC(=O)Nc2cn(C)c(C(=O)Nc3cc(C(=O)NCC[C@@H](N)C(=O)Nc4cc(C(=O)NCCC(=O)Nc5cn(C)c(C(=O)Nc6cn(C)c(C(=O)NCCC(=O)NCCCN(C)C)n6)n5)n(C)c4)n(C)c3)n2)n(C)c1	3.2
CC(=O)Nc1cc(C(=O)NCCC(=O)Nc2cn(C)c(C(=O)Nc3cc(C(=O)NCCCC(=O)Nc4cc(C(=O)NCCC(=O)Nc5cn(C)c(C(=O)Nc6cn(C)c(C(=O)NCCC(=O)NCCCN(C)C)n6)n5)n(C)c4)n(C)c3)n2)n(C)c1	7.4

(P) CC(=O)Nc1cc(C(=O)Nc2cn(C)c(C(=O)NCCC(=O)Nc3cc(C(=O)NCCCC(=O)Nc4cn(C)c(C(=O)Nc5cn(C)c(C(=O)NCCC(=O)Nc6cc(C(=O)NCCC(=O)NCCCN(C)C)n(C)c6)n5)n4)n(C)c3)n2)n(C)c1
(Q) CC(=O)Nc1cc(C(=O)Nc2cn(C)c(C(=O)NCCC(=O)Nc3cc(C(=O)NCC[C@H](N)C(=O)Nc4cn(C)c(C(=O)Nc5cn(C)c(C(=O)NCCC(=O)Nc6cc(C(=O)NCCC(=O)NCCCN(C)C)n(C)c6)n5)n4)n(C)c3)n2)n(C)c1
Thinking about recorded Ka values, which is higher, P or Q ? Reply with the label of the item you choose.
Q
(Q: 2.5 ×10⁶ /M/s, P: 1.1 ×10⁶ /M/s)

###

protocol.summary: Binding affinity to 5'-ATCGGAT-3' DNA (unknown origin) assessed as dissociation rate constant incubated for 180 secs by SPR analysis
measured.attribute: Dissociation rate constant (koff) (×10⁻² /s)
Field: numeric (×10⁻² /s). Do not append units.

Can you look up the measured Dissociation rate constant (koff) of CC(=O)Nc1cc(C(=O)NCCC(=O)Nc2cn(C)c(C(=O)Nc3cc(C(=O)NCCCC(=O)Nc4cc(C(=O)NCCC(=O)Nc5cn(C)c(C(=O)Nc6cn(C)c(C(=O)NCCC(=O)NCCCN(C)C)n6)n5)n(C)c4)n(C)c3)n2)n(C)c1 for me?
8.9

###

protocol.summary: Orientation preference, ratio of change in melting temperature of forward binding site of 5'-ATmCGGAT-3' DNA (unknown origin) to sum of change in melting temperature of forward binding site and change in melting temperature of reverse binding site for 5'-ATmCGGAT-3' DNA (unknown origin)
measured.attribute: Ratio

molecule.smiles	Ratio
CC(=O)Nc1cc(C(=O)NCCC(=O)Nc2cn(C)c(C(=O)Nc3cc(C(=O)NCCCC(=O)Nc4cc(C(=O)Nc5cc(C(=O)Nc6cn(C)c(C(=O)Nc7cn(C)c(C(=O)NCCC(=O)NCCCN(C)C)n7)n6)n(C)c5)n(C)c4)n(C)c3)n2)n(C)c1	0.2

(A) CC(=O)Nc1cc(C(=O)Nc2cc(C(=O)Nc3cn(C)c(C(=O)Nc4cc(C(=O)NCCCC(=O)Nc5cc(C(=O)NCCC(=O)Nc6cn(C)c(C(=O)Nc7cn(C)c(C(=O)NCCC(=O)NCCCN(C)C)n7)n6)n(C)c5)n(C)c4)n3)n(C)c2)n(C)c1
(B) CC(=O)Nc1cc(C(=O)NCCC(=O)Nc2cn(C)c(C(=O)Nc3cc(C(=O)NCC[C@@H](N)C(=O)Nc4cc(C(=O)NCCC(=O)Nc5cn(C)c(C(=O)Nc6cn(C)c(C(=O)NCCC(=O)NCCCN(C)C)n6)n5)n(C)c4)n(C)c3)n2)n(C)c1
(C) CC(=O)Nc1cc(C(=O)Nc2cc(C(=O)Nc3cn(C)c(C(=O)Nc4cc(C(=O)NCCCC(=O)Nc5cc(C(=O)Nc6cc(C(=O)Nc7cn(C)c(C(=O)Nc8cn(C)c(C(=O)NCCC(=O)NCCCN(C)C)n8)n7)n(C)c6)n(C)c5)n(C)c4)n3)n(C)c2)n(C)c1
Ordering criterion: Ratio; begin with the maximum. # answer = labels listed in requested order
B, A, C

###

protocol.summary: Binding affinity to 5'-ATmCGGAT-3' DNA (unknown origin) assessed as association constant incubated for 180 secs by SPR analysis
measured.attribute: Ka (×10⁵ /M/s)

(A) CC(=O)Nc1cc(C(=O)Nc2cn(C)c(C(=O)NCCC(=O)Nc3cc(C(=O)NCCCC(=O)Nc4cn(C)c(C(=O)Nc5cn(C)c(C(=O)Nc6cc(C(=O)Nc7cc(C(=O)NCCC(=O)NCCCN(C)C)n(C)c7)n(C)c6)n5)n4)n(C)c3)n2)n(C)c1
(B) CC(=O)Nc1cc(C(=O)Nc2cc(C(=O)Nc3cn(C)c(C(=O)Nc4cc(C(=O)NCCCC(=O)Nc5cc(C(=O)NCCC(=O)Nc6cn(C)c(C(=O)Nc7cn(C)c(C(=O)NCCC(=O)NCCCN(C)C)n7)n6)n(C)c5)n(C)c4)n3)n(C)c2)n(C)c1
Between the entries labeled A and B , whose measured Ka is lower? Your answer should be the label attached to the chosen record.
A
(A: 3.2 ×10⁵ /M/s, B: 5.1 ×10⁵ /M/s)

###

protocol.summary: Binding affinity to 5'-ATCGGAT-3' DNA (unknown origin) assessed as dissociation rate constant incubated for 180 secs by SPR analysis
measured.attribute: Dissociation rate constant (koff) (×10⁻² /s)

(I) CC(=O)Nc1cc(C(=O)Nc2cc(C(=O)Nc3cn(C)c(C(=O)Nc4cc(C(=O)NCCCC(=O)Nc5cc(C(=O)NCCC(=O)Nc6cn(C)c(C(=O)Nc7cn(C)c(C(=O)NCCC(=O)NCCCN(C)C)n7)n6)n(C)c5)n(C)c4)n3)n(C)c2)n(C)c1
(II) CC(=O)Nc1cc(C(=O)NCCC(=O)Nc2cn(C)c(C(=O)Nc3cc(C(=O)NCCCC(=O)Nc4cc(C(=O)Nc5cc(C(=O)Nc6cn(C)c(C(=O)Nc7cn(C)c(C(=O)NCCC(=O)NCCCN(C)C)n7)n6)n(C)c5)n(C)c4)n(C)c3)n2)n(C)c1
Lab notebook, comparison: I versus II , higher Dissociation rate constant (koff) goes to which? Bench note: the answer is the label of the chosen record.
II
(II: 1.9 ×10⁻² /s, I: 1.1 ×10⁻² /s)

###

protocol.summary: Binding affinity to 5'-ATmCGGAT-3' DNA (unknown origin) in reverse orientation assessed as change in melting temperature at 5 uM by UV-vis spectrophotometry
measured.attribute: ΔTm (°C)

Record excerpt, results attached:
molecule.smiles	ΔTm, °C
CC(=O)Nc1cc(C(=O)NCCC(=O)Nc2cn(C)c(C(=O)Nc3cc(C(=O)NCCCC(=O)Nc4cc(C(=O)Nc5cc(C(=O)Nc6cn(C)c(C(=O)Nc7cn(C)c(C(=O)NCCC(=O)NCCCN(C)C)n7)n6)n(C)c5)n(C)c4)n(C)c3)n2)n(C)c1	3.3
CC(=O)Nc1cc(C(=O)Nc2cc(C(=O)Nc3cn(C)c(C(=O)Nc4cc(C(=O)NCCCC(=O)Nc5cc(C(=O)NCCC(=O)Nc6cn(C)c(C(=O)Nc7cn(C)c(C(=O)NCCC(=O)NCCCN(C)C)n7)n6)n(C)c5)n(C)c4)n3)n(C)c2)n(C)c1	5.9
CC(=O)Nc1cc(C(=O)Nc2cc(C(=O)Nc3cn(C)c(C(=O)Nc4cc(C(=O)NCCCC(=O)Nc5cc(C(=O)Nc6cc(C(=O)Nc7cn(C)c(C(=O)Nc8cn(C)c(C(=O)NCCC(=O)NCCCN(C)C)n8)n7)n(C)c6)n(C)c5)n(C)c4)n3)n(C)c2)n(C)c1	1.6
CC(=O)Nc1cc(C(=O)NCCC(=O)Nc2cn(C)c(C(=O)Nc3cc(C(=O)NCC[C@@H](N)C(=O)Nc4cc(C(=O)NCCC(=O)Nc5cn(C)c(C(=O)Nc6cn(C)c(C(=O)NCCC(=O)NCCCN(C)C)n6)n5)n(C)c4)n(C)c3)n2)n(C)c1	16
CC(=O)Nc1cc(C(=O)Nc2cn(C)c(C(=O)NCCC(=O)Nc3cc(C(=O)NCC[C@H](N)C(=O)Nc4cn(C)c(C(=O)Nc5cn(C)c(C(=O)NCCC(=O)Nc6cc(C(=O)NCCC(=O)NCCCN(C)C)n(C)c6)n5)n4)n(C)c3)n2)n(C)c1	20.8

(a) CC(=O)Nc1cc(C(=O)Nc2cn(C)c(C(=O)NCCC(=O)Nc3cc(C(=O)NCCCC(=O)Nc4cn(C)c(C(=O)Nc5cn(C)c(C(=O)NCCC(=O)Nc6cc(C(=O)NCCC(=O)NCCCN(C)C)n(C)c6)n5)n4)n(C)c3)n2)n(C)c1
(b) CC(=O)Nc1cc(C(=O)NCCC(=O)Nc2cn(C)c(C(=O)Nc3cc(C(=O)NCCCC(=O)Nc4cc(C(=O)NCCC(=O)Nc5cn(C)c(C(=O)Nc6cn(C)c(C(=O)NCCC(=O)NCCCN(C)C)n6)n5)n(C)c4)n(C)c3)n2)n(C)c1
Param pair: a , b . Output: the one whose ΔTm is numerically greater. State your choice using its label.
a
